B1: Transitional endoplasmic reticulum ATPase, residues 26 to 106; numbered along this chain, P55072 (parent)
chain: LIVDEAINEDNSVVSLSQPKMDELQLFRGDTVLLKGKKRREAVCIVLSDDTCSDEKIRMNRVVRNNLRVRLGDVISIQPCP

variants of: B1; test: abundance fitness (aPCA) (normalised: wild type 0, dead -1); higher = more abundant; growth selection in yeast, the domain comes from the species named; details: Homo sapiens
Lab note: class by abundance fitness, see one: < -0.2; two: ≥ -0.2 and < -0.04; three: ≥ -0.04

>>> cat("F27R")
"three"
>>> cat("Q18D")
"one"
>>> cat("D73H")
"two"
>>> cat("T51D")
"three"
>>> cat("D30R")
"one"
>>> cat("T51R")
"two"
>>> cat("D30M")
"two"
>>> cat("P19M")
"three"
>>> cat("N11K")
"two"
>>> cat("L71C")
"two"
>>> cat("L47N")
"three"
>>> cat("D49Y")
"one"
>>> cat("L16K")
"one"
>>> cat("I57E")
"one"
>>> cat("I2K")
"three"
>>> cat("V32M")
"two"
>>> cat("G72F")
"one"
>>> cat("N11C")
"two"
>>> cat("N8Y")
"three"
>>> cat("K35Q")
"three"
